Recorded values, source ChEMBL document CHEMBL4715800.

# maps each entry to its Ratio
# experiment: Selectivity index, ratio of CC50 for C-33-A cells to EC90 for inhibition of HPV-16 DNA amplification in C-33-A cells

- molecule: "CCCCCCCCCCCCCCCCCCOCCOP(=O)(COCCn1cnc2c(=O)[nH]c(N)nc21)OCc1ccccc1 (stereo in doubt; form 1)"
  measurement_name: "Ratio"
  assay_value: ">16"
- molecule: "CCCCCCCCCCCCCCCCCCOCCOP(=O)(COCCn1cnc2c(=O)[nH]c(N)nc21)OCc1ccccc1 (stereo in doubt; form 2)"
  measurement_name: "Ratio"
  assay_value: ">11"
- molecule: "Nc1ccn(C[C@@H](CO)OCP(=O)(O)O)c(=O)n1.O.O"
  measurement_name: "Ratio"
  assay_value: 1
- molecule: "CCCCCCCCCCCCCCCCCCOCCOP(=O)(COCCn1cnc2c(=O)[nH]c(N)nc21)OCc1ccccc1 (stereo in doubt; form 3)"
  measurement_name: "Ratio"
  assay_value: ">7"

Continue with the next molecule.
Ratio in this record for CCCCCCCCCCCCCCCCCCOCCOP(=O)(COCCn1cnc2c(=O)[nH]c(N)nc21)Oc1ccccc1 (stereo not given) : 120

---

# experiment: Selectivity index, ratio of CC50 for C-33-A cells to EC50 for inhibition of HPV-16 DNA amplification in C-33-A cells
# key: entry, value: Ratio CC50/EC50

- compound: "CCCCCCCCCCCCCCCCCCOCCOP(=O)(COCCn1cnc2c(=O)[nH]c(N)nc21)Oc1ccccc1 (stereo not given)"
  measurement_name: "Ratio CC50/EC50"
  assay_value: 670
- compound: "CCCCCCCCCCCCCCCCCCOCCOP(=O)(COCCn1cnc2c(=O)[nH]c(N)nc21)OCc1ccccc1 (stereo in doubt; form 1)"
  measurement_name: "Ratio CC50/EC50"
  assay_value: ">250"
- compound: "Nc1ccn(C[C@@H](CO)OCP(=O)(O)O)c(=O)n1.O.O"
  measurement_name: "Ratio CC50/EC50"
  assay_value: ">1"
- compound: "CCCCCCCCCCCCCCCCCCOCCOP(=O)(COCCn1cnc2c(=O)[nH]c(N)nc21)OCc1ccccc1 (stereo in doubt; form 3)"
  measurement_name: "Ratio CC50/EC50"
  assay_value: ">45"

Kindly consider the entry below.
// CCCCCCCCCCCCCCCCCCOCCOP(=O)(COCCn1cnc2c(=O)[nH]c(N)nc21)OCc1ccccc1 (stereo in doubt; form 2) : Ratio CC50/EC50 value = >71

---

# experiment: Selectivity index, ratio of CC50 for C-33-A cells to EC50 for inhibition of HPV-18 DNA amplification in C-33-A cells
Listing of entries alongside the reported Ratio CC50/EC50.

Worked set:
- molecule: "CCCCCCCCCCCCCCCCCCOCCOP(=O)(COCCn1cnc2c(=O)[nH]c(N)nc21)OCc1ccccc1 (stereo in doubt; form 2)"
  measurement_name: "Ratio CC50/EC50"
  assay_value: ">130"
- molecule: "Nc1ccn(C[C@@H](CO)OCP(=O)(O)O)c(=O)n1.O.O"
  measurement_name: "Ratio CC50/EC50"
  assay_value: ">1"
- molecule: "CCCCCCCCCCCCCCCCCCOCCOP(=O)(COCCn1cnc2c(=O)[nH]c(N)nc21)OCc1ccccc1 (stereo in doubt; form 1)"
  measurement_name: "Ratio CC50/EC50"
  assay_value: ">100"

Recorded result, CCCCCCCCCCCCCCCCCCOCCOP(=O)(COCCn1cnc2c(=O)[nH]c(N)nc21)Oc1ccccc1 (stereo not given) , Ratio CC50/EC50: 980

Recorded result, CCCCCCCCCCCCCCCCCCOCCOP(=O)(COCCn1cnc2c(=O)[nH]c(N)nc21)OCc1ccccc1 (stereo in doubt; form 3) , Ratio CC50/EC50: >37

---

# experiment: Cytotoxicity in human PBMC cells
# Format: cell-based
# condition_notes: pbmc
measurement_name: CC50
Give your result as the value with the unit written after it.

- compound: "CCCCCCCCCCCCCCCCCCOCCOP(=O)(COCCn1cnc2c(=O)[nH]c(N)nc21)OCc1ccccc1 (stereo in doubt; form 1)"
  measurement_name: "CC50"
  assay_value: "0.02 µM"

// sample CCCCCCCCCCCCCCCCCCOCCOP(=O)(COCCn1cnc2c(=O)[nH]c(N)nc21)OCc1ccccc1 (stereo in doubt; form 2) , its CC50 was 0.07 µM

Value of CC50 reported for the compound CCCCCCCCCCCCCCCCCCOCCOP(=O)(COCCn1cnc2c(=O)[nH]c(N)nc21)OCc1ccccc1 (stereo in doubt; form 3) is 0.04 µM

---

# experiment: Selectivity index, ratio of CC50 for HFF to EC50 for inhibition of HSV2 replication in HFF cells
# Type: toxicity, cell-based
# condition_notes: human, HFF cells; read-out: Ratio CC50/EC50
measurement_name: selectivity ratio
API doc: respond with a numeric literal and nothing else, no unit.

Value of measured selectivity ratio for the entry CCCCCCCCCCCCCCCCCCOCCOP(=O)(COCCn1cnc2c(=O)[nH]c(N)nc21)OCc1ccccc1 (stereo in doubt; form 3) : 190

---

# Tested on: HEK293
# experiment: Cytotoxicity in HEK293 cells by CellTiter-Glo assay
# condition_notes: human, hek293
measurement_name: CC50 (µM)
Expressed in µM, but write only the number.

- compound: "CCCCCCCCCCCCCCCCCCOCCOP(=O)(COCCn1cnc2c(=O)[nH]c(N)nc21)OCc1ccccc1 (stereo in doubt; form 2)"
  subject_of_test: "HEK293"
  CC50 / µM: 91

Please fill in: CC50 reported for CCCCCCCCCCCCCCCCCCOCCOP(=O)(COCCn1cnc2c(=O)[nH]c(N)nc21)OCc1ccccc1 (stereo in doubt; form 3) = 83

CCCCCCCCCCCCCCCCCCOCCOP(=O)(COCCn1cnc2c(=O)[nH]c(N)nc21)OCc1ccccc1 (stereo in doubt; form 1) yielded CC50 of 17

---

# experiment: Inhibition of HPV-18 DNA amplification in C-33-A cells incubated for 48 hrs by luciferase reporter gene assay
# Assay type: functional, cell-based, human papillomavirus 18
# condition_notes: c-33-a
pEC50 by entry:
Convention used: pEC50 is expressed as -log10 of the molar concentration.

Sample records with pEC50:
- compound: "CCCCCCCCCCCCCCCCCCOCCOP(=O)(COCCn1cnc2c(=O)[nH]c(N)nc21)OCc1ccccc1 (stereo in doubt; form 1)"
  pEC50: 7.00
- compound: "CCCCCCCCCCCCCCCCCCOCCOP(=O)(COCCn1cnc2c(=O)[nH]c(N)nc21)OCc1ccccc1 (stereo in doubt; form 3)"
  pEC50: 6.57

Now consider a different compound.
Reported pEC50 for CCCCCCCCCCCCCCCCCCOCCOP(=O)(COCCn1cnc2c(=O)[nH]c(N)nc21)OCc1ccccc1 (stereo in doubt; form 2) was 7.10

---

Listed compounds paired with reported Ratio
# experiment: Selectivity index, ratio of CC50 for C-33-A cells to EC90 for inhibition of HPV-11 DNA amplification in C-33-A cells
Reply: number alone, nothing else.

The examples below pair each entry with its known result.
- compound: "CCCCCCCCCCCCCCCCCCOCCOP(=O)(COCCn1cnc2c(=O)[nH]c(N)nc21)Oc1ccccc1 (stereo not given)"
  Ratio: 80
- compound: "Nc1ccn(C[C@@H](CO)OCP(=O)(O)O)c(=O)n1.O.O [CIDOFOVIR]"
  Ratio: 1

The record that follows has no Ratio shown yet.
Please fill in: Ratio reported for CCCCCCCCCCCCCCCCCCOCCOP(=O)(COCCn1cnc2c(=O)[nH]c(N)nc21)OCc1ccccc1 (stereo in doubt; form 1) = 15

---

# Test system: HFF
# experiment: Cytotoxicity in HFF cells incubated for 7 days by CellTiter-Glo assay
# Assay type: cell-based
# condition_notes: human, hff, 168 h; time 7 day
measurement_name: CC50 (µM)
Dear colleague, please return just the value in µM, with no unit written.

- compound: "CCCCCCCCCCCCCCCCCCOCCOP(=O)(COCCn1cnc2c(=O)[nH]c(N)nc21)OCc1ccccc1 (stereo in doubt; form 1)"
  subject_of_test: "HFF"
  uom: "µM"
  CC50: 5.2

# ---- query compound ----
Record summary for CCCCCCCCCCCCCCCCCCOCCOP(=O)(COCCn1cnc2c(=O)[nH]c(N)nc21)OCc1ccccc1 (stereo in doubt; form 2) : reported CC50 = 5.4

---

# experiment: Inhibition of HIV1 92US727 replication in PHA-P-stimulated human PBMCs incubated for 7 days by reverse transcriptase activity based assay
# Type: functional, cell-based, Human immunodeficiency virus 1, PBMC
# condition_notes: pbmc
measurement_name: pEC50
# pEC50 is unitless: minus log10 of the molar concentration; print number only

Just so you know, measured pEC50 for CCCCCCCCCCCCCCCCCCOCCOP(=O)(COCCn1cnc2c(=O)[nH]c(N)nc21)OCc1ccccc1 (stereo in doubt; form 1) came out at 8.70

The compound listed as CCCCCCCCCCCCCCCCCCOCCOP(=O)(COCCn1cnc2c(=O)[nH]c(N)nc21)OCc1ccccc1 (stereo in doubt; form 2) shows pEC50 equal to 8.40
